Target: PI3Kβ (Homo sapiens, UniProt P42338)
Construct: purchased Millipore 14-603-K
Sequence (P42338 whole entry): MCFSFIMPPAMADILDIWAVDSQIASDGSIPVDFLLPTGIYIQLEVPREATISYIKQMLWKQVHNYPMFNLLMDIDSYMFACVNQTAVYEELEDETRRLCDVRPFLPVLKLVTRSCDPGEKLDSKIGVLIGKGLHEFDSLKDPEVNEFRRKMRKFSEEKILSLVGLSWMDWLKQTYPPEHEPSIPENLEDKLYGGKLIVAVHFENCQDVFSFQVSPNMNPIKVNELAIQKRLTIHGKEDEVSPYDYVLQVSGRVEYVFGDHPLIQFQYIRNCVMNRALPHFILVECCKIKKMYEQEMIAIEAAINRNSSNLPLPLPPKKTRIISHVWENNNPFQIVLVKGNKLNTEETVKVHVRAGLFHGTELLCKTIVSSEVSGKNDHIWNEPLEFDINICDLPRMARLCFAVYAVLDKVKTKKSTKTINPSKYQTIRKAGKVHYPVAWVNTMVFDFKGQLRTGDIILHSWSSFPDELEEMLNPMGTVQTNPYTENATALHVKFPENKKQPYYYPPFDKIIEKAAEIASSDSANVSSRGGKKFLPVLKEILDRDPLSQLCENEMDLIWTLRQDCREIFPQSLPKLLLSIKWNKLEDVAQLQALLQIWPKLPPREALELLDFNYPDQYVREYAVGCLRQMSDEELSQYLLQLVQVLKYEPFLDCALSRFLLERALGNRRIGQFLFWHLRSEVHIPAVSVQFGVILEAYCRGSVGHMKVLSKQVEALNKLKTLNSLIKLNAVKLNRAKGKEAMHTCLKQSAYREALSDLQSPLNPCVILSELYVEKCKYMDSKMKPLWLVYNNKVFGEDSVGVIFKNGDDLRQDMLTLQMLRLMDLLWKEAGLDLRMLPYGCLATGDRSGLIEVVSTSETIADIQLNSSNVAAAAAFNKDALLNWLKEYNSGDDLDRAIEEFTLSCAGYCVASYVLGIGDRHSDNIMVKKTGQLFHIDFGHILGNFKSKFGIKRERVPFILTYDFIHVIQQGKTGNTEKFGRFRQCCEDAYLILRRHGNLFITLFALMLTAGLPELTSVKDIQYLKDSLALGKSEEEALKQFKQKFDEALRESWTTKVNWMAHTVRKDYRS
Sequence (P27986 whole entry partner): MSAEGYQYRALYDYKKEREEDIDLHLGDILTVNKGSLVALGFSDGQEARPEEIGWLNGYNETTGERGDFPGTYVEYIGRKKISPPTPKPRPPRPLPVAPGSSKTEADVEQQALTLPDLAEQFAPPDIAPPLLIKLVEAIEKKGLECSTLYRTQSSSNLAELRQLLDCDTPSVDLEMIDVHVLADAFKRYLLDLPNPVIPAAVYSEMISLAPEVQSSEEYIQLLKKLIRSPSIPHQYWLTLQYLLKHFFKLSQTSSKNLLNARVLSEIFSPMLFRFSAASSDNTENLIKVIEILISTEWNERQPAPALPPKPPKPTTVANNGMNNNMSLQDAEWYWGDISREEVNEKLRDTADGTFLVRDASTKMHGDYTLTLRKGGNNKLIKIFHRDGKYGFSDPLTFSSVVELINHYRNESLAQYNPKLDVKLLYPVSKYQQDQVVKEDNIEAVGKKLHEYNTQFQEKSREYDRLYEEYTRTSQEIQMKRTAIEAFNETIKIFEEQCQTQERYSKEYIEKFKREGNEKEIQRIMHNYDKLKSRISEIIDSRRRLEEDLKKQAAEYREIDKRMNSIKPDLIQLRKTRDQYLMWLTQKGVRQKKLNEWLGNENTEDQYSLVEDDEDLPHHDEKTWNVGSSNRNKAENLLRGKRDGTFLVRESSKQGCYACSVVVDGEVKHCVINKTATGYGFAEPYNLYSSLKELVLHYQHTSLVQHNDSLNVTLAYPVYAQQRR
Assay: In vitro kinase activity (LabChip EZ Reader mobility shift), PI3Kβ
Assay type: biochemical
Details: kinase subtype PI3Kβ (p110β)
observation_type: IC50 (nM)

molecule	IC50, nM
CC(Nc1ncnc(N)c1C#N)c1c(-c2cccc(F)c2)n(C)c2ccccc2c1=O (centres unmarked)	972

[P] CC(Nc1nc(N)nc(N)c1C#N)c1c(-c2ccccc2)[nH]c2c(Cl)cccc2c1=O (centres unmarked)
[Q] CC(Nc1nc(N)nc(N)c1C#N)c1c(-c2ccccc2)n(C)c2ccccc2c1=O (centres unmarked)
[R] CC(Nc1nc(N)nc(N)c1C#N)c1c(-c2ccccc2)oc2c(Cl)cccc2c1=O (centres unmarked)
Prompt line: Given 3 molecules, produce a descending ranking by IC50. Put the labels in the requested order and list them out.
Response line: R, Q, P
(R: 881 nM, Q: 113 nM, P: 60 nM)
